B1: HDV Ribozyme (parent)
chain: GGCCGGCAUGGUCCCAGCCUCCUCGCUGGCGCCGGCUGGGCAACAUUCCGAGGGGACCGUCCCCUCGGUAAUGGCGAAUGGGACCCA

Variants of: B1
procedure-text: self-cleavage, relative activity (ratio to wild type); higher = more cleavage; co-transcriptional
measurement-name: self-cleavage

mutant-label	measurement-name	measured-value
A8G C85U	self-cleavage	1.06
G2A G39C	self-cleavage	0.0712
C57U A78U	self-cleavage	0.119
G1C C48A	self-cleavage	0.293
G11A G28C	self-cleavage	0.0936
C18U C62G	self-cleavage	0.543
G1A U69C	self-cleavage	0.104
G40A C48A	self-cleavage	0.941
C61G C85U	self-cleavage	1.04
G40U C61A	self-cleavage	0.632
G31U A83U	self-cleavage	0.0627
G39A U69C	self-cleavage	0.609
U46G C86A	self-cleavage	0.684
C22A A45C	self-cleavage	0.115
C66G U72G	self-cleavage	0.266
